Entries annotated with measured Activity
Biological target: ATP-dependent translocase ABCB1 (Homo sapiens, UniProt P08183)
Sequence (P08183 whole entry): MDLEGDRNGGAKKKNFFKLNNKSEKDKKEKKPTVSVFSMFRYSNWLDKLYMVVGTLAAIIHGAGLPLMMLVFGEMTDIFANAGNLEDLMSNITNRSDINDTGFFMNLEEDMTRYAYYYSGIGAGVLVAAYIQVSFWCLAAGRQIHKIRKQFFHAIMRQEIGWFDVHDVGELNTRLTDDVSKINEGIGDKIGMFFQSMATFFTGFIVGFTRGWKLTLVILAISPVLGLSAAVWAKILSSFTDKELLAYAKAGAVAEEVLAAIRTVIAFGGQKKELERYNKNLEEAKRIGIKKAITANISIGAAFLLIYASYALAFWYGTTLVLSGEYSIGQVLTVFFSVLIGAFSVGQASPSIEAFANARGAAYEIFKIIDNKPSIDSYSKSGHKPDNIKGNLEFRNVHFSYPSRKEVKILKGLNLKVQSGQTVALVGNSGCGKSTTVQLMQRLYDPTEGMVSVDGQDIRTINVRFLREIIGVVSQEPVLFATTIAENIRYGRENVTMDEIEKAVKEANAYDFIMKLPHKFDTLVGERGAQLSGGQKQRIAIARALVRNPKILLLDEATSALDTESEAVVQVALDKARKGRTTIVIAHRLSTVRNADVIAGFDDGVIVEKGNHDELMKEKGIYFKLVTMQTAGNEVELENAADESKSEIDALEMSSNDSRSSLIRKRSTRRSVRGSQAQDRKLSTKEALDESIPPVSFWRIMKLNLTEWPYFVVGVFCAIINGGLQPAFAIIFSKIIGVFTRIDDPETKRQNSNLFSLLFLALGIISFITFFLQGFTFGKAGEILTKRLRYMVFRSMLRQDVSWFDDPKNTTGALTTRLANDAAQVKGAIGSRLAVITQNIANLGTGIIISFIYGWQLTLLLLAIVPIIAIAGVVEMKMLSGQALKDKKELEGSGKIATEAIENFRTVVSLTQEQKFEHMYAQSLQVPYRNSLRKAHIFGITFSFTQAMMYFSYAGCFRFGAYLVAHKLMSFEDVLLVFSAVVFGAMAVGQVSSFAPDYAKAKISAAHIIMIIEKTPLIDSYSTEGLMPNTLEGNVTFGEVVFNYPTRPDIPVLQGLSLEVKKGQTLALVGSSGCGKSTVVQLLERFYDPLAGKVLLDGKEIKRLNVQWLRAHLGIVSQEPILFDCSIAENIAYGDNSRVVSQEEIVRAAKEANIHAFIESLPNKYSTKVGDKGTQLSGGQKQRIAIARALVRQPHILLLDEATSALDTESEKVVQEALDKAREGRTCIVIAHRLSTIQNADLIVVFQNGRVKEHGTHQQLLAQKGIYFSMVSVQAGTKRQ
Test: Inhibition of P-gp in human MCF7/ADR cells assessed as peak fluorescence intensity of cells at 20 uM pre-treated for 1 hr at 37 degC followed by incubation with Rh123 for 1 hr by flow cytometry (reference value: 87.3 No unit)
Type: cell-based
Conditions: nci/adr-res

Entry under review: COc1ccc(CCN(C)CCCC(C#N)(c2ccc(OC)c(OC)c2)C(C)C)cc1OC (centres undefined) . Reported Activity?
157.1

Entry under review: C=C1CC[C@H]2[C@@H](/C=C(\C)C(=O)[C@@]3(O)C[C@H](C)[C@H](O)[C@@H]3[C@H]1OC(=O)Cc1cccc3ccccc13)C2(C)C . Reported Activity?
205.9

Entry under review: C=C1CC[C@H]2[C@@H](/C=C(\C)C(=O)[C@@]3(O)C[C@H](C)[C@H](OC(=O)CC)[C@@H]3[C@H]1OC(=O)Cc1cccc3ccccc13)C2(C)C . Reported Activity?
235.8

Entry under review: C=C1CC[C@H]2[C@@H](/C=C(\C)C(=O)[C@@]3(O)C[C@H](C)[C@H](OC(=O)c4ccccc4)[C@@H]3[C@H]1OC(=O)c1ccccc1)C2(C)C . Reported Activity?
196.8
